- assayRemarks: Half life in human liver microsomes at 1 uM
- Format: ADME, Microsome
measureName: half-life at 1 µM (min)
Supply the numeric figure in min, leaving out any unit text.

INPUT: Tell me its half-life at 1 µM given "CNC(=O)O[C@@H](CC(C)C)c1nc([C@H]2OC(=O)/C=C/C/C(C)=C/[C@@H](O)[C@@H](C)\C=C(C)/C=C(C)\C=C\[C@@H](O)[C@H](C)[C@H](OC)/C(C)=C/C=C/[C@@H]2C)cs1" as the entry.
OUTPUT: 2.6

====

- measuredOn: P2X purinoceptor 3 (Homo sapiens)
- Sequence (P56373 whole entry): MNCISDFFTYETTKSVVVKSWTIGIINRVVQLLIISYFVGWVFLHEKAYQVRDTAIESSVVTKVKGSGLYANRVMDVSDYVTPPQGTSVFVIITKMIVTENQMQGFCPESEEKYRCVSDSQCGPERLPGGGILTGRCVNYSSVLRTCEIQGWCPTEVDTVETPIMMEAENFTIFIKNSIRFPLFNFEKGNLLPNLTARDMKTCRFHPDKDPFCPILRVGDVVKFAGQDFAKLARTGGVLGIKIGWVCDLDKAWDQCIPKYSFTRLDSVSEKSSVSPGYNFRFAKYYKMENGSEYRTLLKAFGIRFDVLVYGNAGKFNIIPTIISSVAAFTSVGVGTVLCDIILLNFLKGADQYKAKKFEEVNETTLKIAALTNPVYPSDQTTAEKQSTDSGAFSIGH
- assayRemarks: Inhibition of human P2X3 assessed as reduction in agonist-induced intracellular Ca2+ concentration pre-incubated for 30 mins before agonist addition by calcium 5 dye based fluorescence assay
# strict inequality: IC50 < 400 nM yields fulfilled, everything else yields not fulfilled

Consider the following illustrative entries.
INPUT: Bench note: check whether "CNC(=O)O[C@@H](CC(C)C)c1nc([C@H]2OC(=O)C/C=C/C(C)=C/[C@@H](O)[C@@H](C)\C=C(C)/C=C(C)\C=C\[C@@H](O)[C@H](C)[C@H](O)/C(C)=C/C=C/[C@@H]2C)cs1" shows IC50 below 400 nM
OUTPUT: not fulfilled

INPUT: Does this compound meet the criterion IC50 < 400 nM? "CNC(=O)O[C@@H](CC(C)C)c1nc([C@@H](O)[C@@H](C)/C=C/C=C(\C)[C@@H](OC)[C@@H](C)[C@H](O)/C=C/C(C)=C\C(C)=C/[C@H](C)[C@H](O)/C=C(C)/C=C/CC(=O)OC)cs1"
OUTPUT: not fulfilled

INPUT: is_below(IC50, 400 nM) for "CNC(=O)O[C@@H](CC(C)C)c1nc([C@H]2OC(=O)[C@@H](C)/C=C/C(C)=C/[C@@H](O)[C@@H](C)\C=C(C)/C=C(C)\C=C\[C@@H](O)[C@H](C)[C@H](OC)/C(C)=C/C=C/[C@@H]2C)cs1" ?
OUTPUT: not fulfilled

---
INPUT: IC50 under 400 nM? Item: CNC(=O)O[C@@H](CC(C)C)c1nc([C@H]2OC(=O)/C=C/C/C(C)=C/[C@@H](O)[C@@H](C)\C=C(C)/C=C(C)\C=C\[C@@H](O)[C@H](C)[C@H](OC)/C(C)=C/C=C/[C@@H]2C)cs1 [ARCHAZOLID B]
OUTPUT: fulfilled

INPUT: Does the reported IC50 of CO/C1=C\C(C)=C\[C@@H](C)[C@@H](O)[C@@H](C)C/C(C)=C/C=C/[C@H](OC)[C@@H]([C@@H](C)[C@@H](O)[C@H](C)[C@@]2(O)C[C@@H](O)[C@H](C)[C@@H](C(C)C)O2)OC1=O [BAFILOMYCIN A1] stay below 400 nM?
OUTPUT: not fulfilled

INPUT: Determine if CNC(=O)O[C@@H](CC(C)C)c1nc([C@H]2OC(=O)/C(C)=C/C/C(C)=C/[C@@H](O)[C@@H](C)\C=C(C)/C=C(C)\C=C\[C@@H](O)[C@H](C)[C@H](OC)/C(C)=C/C=C/[C@@H]2C)cs1 [ARCHAZOLID A] shows IC50 strictly lower than 400 nM.
OUTPUT: fulfilled

INPUT: Given the entry "CNC(=O)O[C@@H](CC(C)C)c1nc([C@H]2OC(=O)[C@H](C)/C=C/C(C)=C/[C@@H](O)[C@@H](C)\C=C(C)/C=C(C)\C=C\[C@@H](O)[C@H](C)[C@H](OC)/C(C)=C/C=C/[C@@H]2C)cs1" , would its reported IC50 be below 400 nM?
OUTPUT: not fulfilled

INPUT: A record lists CNC(=O)O[C@@H](CC(C)C)c1nc([C@H]2OC(=O)C/C=C/C(C)=C/[C@@H](O)[C@@H](C)\C=C(C)/C=C(C)\C=C\[C@@H](O)[C@H](C)[C@H](OC)/C(C)=C/C=C/[C@@H]2C)cs1 [ARCHAZOLID F] . Is its IC50 below 400 nM?
OUTPUT: not fulfilled
